System: Botrytis cinerea
assay summary: Control of Botrytis cinerea disease in Arabidopsis (Bc-At)
Assay type: in vivo
settings: 1 μM spraying every 24 hours for one week, water control 8.7
property: Bc-At: mean of the diameter of the lesion (mm)

[
  {
    "molecule": "O=C(c1cnc(N2CCN(n3cccc3)CC2)nc1)N1CC2CC(O)C(O)CC2C1 (stereo not shown) [IIIK]",
    "reading unit": "mm",
    "test value": 0.5
  },
  {
    "molecule": "O=C(CCc1cc2cc3c(-n4cccc4)coc3cc2oc1=O)NCC(O)CO (stereo not shown) [IG]",
    "reading unit": "mm",
    "test value": 1.2
  },
  {
    "molecule": "CN1c2cc(C(=O)NC3CCCC3)ccc2OCC1CC(=O)NC(CO)CO (stereo not shown) [VH]",
    "reading unit": "mm",
    "test value": 0.7
  },
  {
    "molecule": "Cc1c(CCC(=O)NCC(O)CO)c(=O)oc2cc3occ(-c4ccc5ccccc5c4)c3cc12 (stereo not shown) [IL]",
    "reading unit": "mm",
    "test value": 0.7
  },
  {
    "molecule": "CC(O)C(O)CN1CCC(Oc2ccc(C(=O)N3CCC(C4CCCC4)C3)cc2)CC1 (stereo not shown) [IVH]",
    "reading unit": "mm",
    "test value": 0.7
  },
  {
    "molecule": "Cc1nc(N2CCN(C)CC2)ncc1C(=O)N1CC2CC(O)C(O)CC2C1 (stereo not shown) [IIIB]",
    "reading unit": "mm",
    "test value": 0.7
  },
  {
    "molecule": "Cc1c(CCC(=O)NCC(O)CO)c(=O)oc2cc3occ(C4CCCC4)c3cc12 (stereo not shown) [IK]",
    "reading unit": "mm",
    "test value": 2.4
  },
  {
    "molecule": "Cc1nc(N2CCNCC2)ncc1C(=O)N1CC2CC(O)C(O)CC2C1 (stereo not shown) [IIIJ]",
    "reading unit": "mm",
    "test value": 1.1
  },
  {
    "molecule": "Cc1c2c(oc(=O)c1CC(=O)NCC(O)CO)C=CC1C(c3ccccc3)=COC21 (stereo not shown) [III]",
    "reading unit": "mm",
    "test value": 2.4
  },
  {
    "molecule": "O=C(CCc1cc2cc3c(-c4ccc5ccccc5c4)coc3cc2oc1=O)NCC(O)CO (stereo not shown) [IE]",
    "reading unit": "mm",
    "test value": 2.4
  },
  {
    "molecule": "CC(O)C(O)CN1CCC(Oc2ccc(C(=O)N3CCC(n4cccc4)C3)cc2)CC1 (stereo not shown) [IVL]",
    "reading unit": "mm",
    "test value": 1.5
  },
  {
    "molecule": "CN1CCN(c2ncc(C(=O)N3CC4CC(O)C(O)CC4C3)cn2)CC1 (stereo not shown) [IIIA]",
    "reading unit": "mm",
    "test value": 2.4
  },
  {
    "molecule": "Cc1coc2cc3oc(=O)c(CCC(=O)NCC(O)CO)cc3cc12 (stereo not shown) [IA]",
    "reading unit": "mm",
    "test value": 1.2
  },
  {
    "molecule": "O=C(Cc1cc2c(oc1=O)C=CC1C(n3cccc3)=COC21)NCC(O)CO (stereo not shown) [IIG]",
    "reading unit": "mm",
    "test value": 0.5
  },
  {
    "molecule": "Cc1nc(N2CCN(n3cccc3)CC2)ncc1C(=O)N1CC2CC(O)C(O)CC2C1 (stereo not shown) [IIIL]",
    "reading unit": "mm",
    "test value": 1.5
  },
  {
    "molecule": "O=C(CC1COc2ccc(C(=O)Nn3cccc3)cc2N1)NC(CO)CO (stereo not shown) [VK]",
    "reading unit": "mm",
    "test value": 1.1
  }
]
